Target: Steroidogenic factor 1 (Homo sapiens) (UniProt Q13285)
Sequence (Q13285 whole entry, looked up, the tested form may be a part): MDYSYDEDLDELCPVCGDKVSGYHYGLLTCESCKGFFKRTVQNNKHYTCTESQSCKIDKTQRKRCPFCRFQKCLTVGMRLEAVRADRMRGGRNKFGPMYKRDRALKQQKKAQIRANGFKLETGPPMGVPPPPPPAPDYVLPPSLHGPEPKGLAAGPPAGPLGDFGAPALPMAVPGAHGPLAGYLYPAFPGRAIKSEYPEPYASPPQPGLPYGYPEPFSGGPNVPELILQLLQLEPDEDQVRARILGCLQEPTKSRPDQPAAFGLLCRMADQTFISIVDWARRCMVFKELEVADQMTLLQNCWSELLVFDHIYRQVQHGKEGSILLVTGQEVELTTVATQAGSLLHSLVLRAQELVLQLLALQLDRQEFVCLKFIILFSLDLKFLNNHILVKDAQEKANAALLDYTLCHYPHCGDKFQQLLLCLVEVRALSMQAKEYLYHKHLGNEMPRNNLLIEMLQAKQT
Test: SF-1 ligand-binding domain transactivation enhancers – cell-based, CHO-K1, Gal4-SF-1 LBD, luciferase luminescence, primary screen (AID 522)
Details: CHO-K1 Gal4-SF-1 LBD luciferase reporter; at 10 µM; % increase over DMSO SF-1-specific signal
Screen size: about 65,000 compounds; about 1,200 (1.8%) were called active.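 The calls were made as follows: active = activation above the mean activation of all tested compounds plus 3 SD (cut at about 50% in these data); inactive = the rest.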 Only a selection was taken, and actives are over-represented in it overall.
Labels: active, inactive

{"columns": ["MOL_SMILES", "MEASURED_TARGET", "CAT"],
 "data": [
  ["Cn1c(=O)c(C(=O)Nc2ncccn2)c(O)c2ccccc21", "Steroidogenic factor 1 (Homo sapiens) (UniProt Q13285)", "active"],
  ["O=C(Nc1ncccn1)c1cccs1", "Steroidogenic factor 1 (Homo sapiens) (UniProt Q13285)", "inactive"],
  ["CCOc1cc(C(=O)Nc2ncccn2)cc(OCC)c1OCC", "Steroidogenic factor 1 (Homo sapiens) (UniProt Q13285)", "inactive"],
  ["C=CCNC(=O)c1ccc(C)c(Br)c1", "Steroidogenic factor 1 (Homo sapiens) (UniProt Q13285)", "inactive"],
  ["COc1ccc(OCc2ccc(-c3nc4ccccc4c(=O)n3N)o2)cc1", "Steroidogenic factor 1 (Homo sapiens) (UniProt Q13285)", "active"],
  ["CCOC(=O)c1ccc(-n2c(C)nc3c(cnn3-c3ccccc3C)c2=O)cc1", "Steroidogenic factor 1 (Homo sapiens) (UniProt Q13285)", "inactive"]
]}
